Molecular target: B1 bradykinin receptor (Rattus norvegicus)
Experiment: Antagonist activity at rat bradykinin B1 receptor
pIC50: −log10 of the molar value.
measurement-type: pIC50

[[record]]
compound = "COc1cccc2c1-c1ccccc1N(S(=O)(=O)c1ccc(Cl)c(Cl)c1)C2CC(=O)NCCc1ccc(C2=NCCN2)cc1 (centres undefined)"
value_reported = 7.68

[[record]]
compound = "O=C(CC1c2ccccc2-c2ccccc2N1S(=O)(=O)c1ccc(Cl)c(Cl)c1)NCCc1ccc(C2=NCCN2)cc1 (centres undefined)"
value_reported = 7.55

[[record]]
compound = "COc1cccc2c1-c1ccccc1N(S(=O)(=O)c1ccc(Cl)c(Cl)c1)C2CC(=O)N[C@H]1CC[C@H](CCN2CCCC2)CC1 (some centres undefined)"
value_reported = 7.37

[[record]]
compound = "Cc1ccc(S(=O)(=O)N2c3ccccc3-c3ccccc3C2CC(=O)NCCc2ccc(C3=NCCN3)cc2)cc1 (centres undefined)"
value_reported = 7.28


* * *

# CLint per record follows
Test system: Liver microsomes
Assay: Intrinsic clearance in human liver microsomes assessed per gram of liver at 2.5 uM after 20 mins
Type: ADME, Microsome
measurement-type: CLint (mL/min/g)

[[record]]
compound = "O=C(CC1c2ccccc2CCN1S(=O)(=O)c1ccc(Cl)c(Cl)c1)N1CCC(Cc2ccc(C3=NCCN3)cc2)CC1 (centres undefined)"
units_text = "mL/min/g"
value_reported = 13.1

[[record]]
compound = "Cc1cc(C)c(S(=O)(=O)N2c3ccccc3-c3ccccc3C2CC(=O)NCCc2ccc(C3=NCCN3)cc2)cc1C (centres undefined)"
units_text = "mL/min/g"
value_reported = 16.4

[[record]]
compound = "O=C(CC1c2ccccc2CCN1S(=O)(=O)c1ccc(Cl)c(Cl)c1)N[C@H]1CC[C@H](CCC2=NCCN2)CC1 (some centres undefined)"
units_text = "mL/min/g"
value_reported = 12.5

[[record]]
compound = "O=C(CC1CCc2ccccc2N1S(=O)(=O)c1ccc(Cl)c(Cl)c1)NCCN1CCN(c2ccncc2)CC1 (centres undefined)"
units_text = "mL/min/g"
value_reported = 16.8

[[record]]
compound = "O=C(CC1c2ccccc2CCN1S(=O)(=O)c1ccc(Cl)c(Cl)c1)NCCc1ccc(C2=NCCN2)cc1 (centres undefined)"
units_text = "mL/min/g"
value_reported = 4.2

[[record]]
compound = "Cc1ccc(S(=O)(=O)N2c3ccccc3-c3ccccc3C2CC(=O)NCCc2ccc(C3=NCCN3)cc2)cc1 (centres undefined)"
units_text = "mL/min/g"
value_reported = 12.9

[[record]]
compound = "O=C(CC1c2cc(F)ccc2-c2ccccc2N1S(=O)(=O)c1ccc(Cl)c(Cl)c1)NCCc1ccc(C2=NCCN2)cc1 (centres undefined)"
units_text = "mL/min/g"
value_reported = 5.5

[[record]]
compound = "O=C(CC1CCc2ccccc2N1S(=O)(=O)c1ccc(Cl)c(Cl)c1)NCCc1ccc(C2=NCCN2)cc1 (centres undefined)"
units_text = "mL/min/g"
value_reported = 7.1

[[record]]
compound = "O=C(CC1c2cc(F)cc(F)c2-c2ccccc2N1S(=O)(=O)c1ccc(Cl)c(Cl)c1)NCCc1ccc(C2=NCCN2)cc1 (centres undefined)"
units_text = "mL/min/g"
value_reported = 8

[[record]]
compound = "COc1cccc2c1-c1ccccc1N(S(=O)(=O)c1ccc(Cl)c(Cl)c1)C2CC(=O)NCCc1ccc(C2=NCCN2)cc1 (centres undefined)"
units_text = "mL/min/g"
value_reported = 1

[[record]]
compound = "COc1ccc(S(=O)(=O)N2c3ccccc3-c3ccccc3C2CC(=O)NCCc2ccc(C3=NCCN3)cc2)cc1 (centres undefined)"
units_text = "mL/min/g"
value_reported = 14.5

[[record]]
compound = "COc1cccc2c1-c1ccccc1N(S(=O)(=O)c1ccc(Cl)c(Cl)c1)C2CC(=O)N[C@H]1CC[C@H](CCN2CCCC2)CC1 (some centres undefined)"
units_text = "mL/min/g"
value_reported = 1.1

[[record]]
compound = "O=C(CC1c2ccccc2-c2ccccc2N1S(=O)(=O)c1ccc(Cl)c(Cl)c1)NCCc1ccc(C2=NCCN2)cc1 (centres undefined)"
units_text = "mL/min/g"
value_reported = 9.8

[[record]]
compound = "O=C(CC1CCc2ccccc2N1S(=O)(=O)c1ccc(Cl)c(Cl)c1)N[C@H]1CC[C@H](CCC2=NCCN2)CC1 (some centres undefined)"
units_text = "mL/min/g"
value_reported = 9


* * *

System: Liver microsomes
Experiment: Intrinsic clearance in rat liver microsomes assessed per gram of liver at 2.5 uM after 20 mins
Assay type: ADME, Microsome
# CLint per record follows
measurement-type: CLint (mL/min/g)

[[record]]
compound = "Cc1cc(C)c(S(=O)(=O)N2c3ccccc3-c3ccccc3C2CC(=O)NCCc2ccc(C3=NCCN3)cc2)cc1C (centres undefined)"
measurement_type = "CLint"
value_reported = 2.7

[[record]]
compound = "O=C(CC1CCc2ccccc2N1S(=O)(=O)c1ccc(Cl)c(Cl)c1)NCCN1CCN(c2ccncc2)CC1 (centres undefined)"
measurement_type = "CLint"
value_reported = 7.4

[[record]]
compound = "O=C(CC1c2ccccc2CCN1S(=O)(=O)c1ccc(Cl)c(Cl)c1)N1CCC(Cc2ccc(C3=NCCN3)cc2)CC1 (centres undefined)"
measurement_type = "CLint"
value_reported = 2.4

[[record]]
compound = "O=C(CC1c2ccccc2CCN1S(=O)(=O)c1ccc(Cl)c(Cl)c1)NCCc1ccc(C2=NCCN2)cc1 (centres undefined)"
measurement_type = "CLint"
value_reported = 1.9


* * *

Target: B1 bradykinin receptor (Rattus norvegicus, UniProt P97583)
Sequence (P97583 whole entry): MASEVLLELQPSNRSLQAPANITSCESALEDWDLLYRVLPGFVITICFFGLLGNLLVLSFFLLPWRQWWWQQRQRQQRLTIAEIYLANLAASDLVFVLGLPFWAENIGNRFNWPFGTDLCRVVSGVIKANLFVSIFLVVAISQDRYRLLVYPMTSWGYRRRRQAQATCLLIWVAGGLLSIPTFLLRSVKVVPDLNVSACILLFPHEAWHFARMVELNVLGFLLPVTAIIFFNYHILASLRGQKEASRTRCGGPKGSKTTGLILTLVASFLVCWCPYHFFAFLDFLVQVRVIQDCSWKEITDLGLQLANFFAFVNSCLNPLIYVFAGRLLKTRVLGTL
Test: Antagonist activity at rat bradykinin B1 receptor
pIC50: −log10 of the molar value.
# pIC50 per record follows
measurement-type: pIC50

[[record]]
compound = "O=C(CC1c2cc(F)ccc2-c2ccccc2N1S(=O)(=O)c1ccc(Cl)c(Cl)c1)NCCc1ccc(C2=NCCN2)cc1 (centres undefined)"
measurement_type = "pIC50"
value_reported = 7.35

[[record]]
compound = "COc1ccc(S(=O)(=O)N2c3ccccc3-c3ccccc3C2CC(=O)NCCc2ccc(C3=NCCN3)cc2)cc1 (centres undefined)"
measurement_type = "pIC50"
value_reported = 7.09

[[record]]
compound = "Cc1cc(C)c(S(=O)(=O)N2c3ccccc3-c3ccccc3C2CC(=O)NCCc2ccc(C3=NCCN3)cc2)cc1C (centres undefined)"
measurement_type = "pIC50"
value_reported = 7.68

[[record]]
compound = "O=C(CC1c2cc(F)cc(F)c2-c2ccccc2N1S(=O)(=O)c1ccc(Cl)c(Cl)c1)NCCc1ccc(C2=NCCN2)cc1 (centres undefined)"
measurement_type = "pIC50"
value_reported = 7.38


* * *

System: Liver microsomes
Assay: Intrinsic clearance in rat liver microsomes assessed per gram of liver at 2.5 uM after 20 mins
Assay type: ADME, Microsome
measurement-type: CLint (mL/min/g)

[[record]]
molecule = "COc1ccc(S(=O)(=O)N2c3ccccc3-c3ccccc3C2CC(=O)NCCc2ccc(C3=NCCN3)cc2)cc1 (stereo not drawn)"
units_text = "mL/min/g"
value_reported = 4.8

[[record]]
molecule = "O=C(CC1c2cc(F)cc(F)c2-c2ccccc2N1S(=O)(=O)c1ccc(Cl)c(Cl)c1)NCCc1ccc(C2=NCCN2)cc1 (stereo not drawn)"
units_text = "mL/min/g"
value_reported = 3.9

[[record]]
molecule = "COc1cccc2c1-c1ccccc1N(S(=O)(=O)c1ccc(Cl)c(Cl)c1)C2CC(=O)N[C@H]1CC[C@H](CCN2CCCC2)CC1 (stereo partly drawn)"
units_text = "mL/min/g"
value_reported = 1.8


Where do the numbers come from? From ChEMBL document CHEMBL2016470.
